biological target: Msm. GyrB (Mycolicibacterium smegmatis, UniProt A0QNE0); construct: 15 nM Msm; GyrB, 650 μM ATP, and compound in dimethyl sulfoxide; test: Msmegmatis GyrB enzyme assay (ATPase, malachite green phosphate detection); assay type: biochemical; settings: read-out: Msm_GyrB IC50
Sequence (A0QNE0 whole entry): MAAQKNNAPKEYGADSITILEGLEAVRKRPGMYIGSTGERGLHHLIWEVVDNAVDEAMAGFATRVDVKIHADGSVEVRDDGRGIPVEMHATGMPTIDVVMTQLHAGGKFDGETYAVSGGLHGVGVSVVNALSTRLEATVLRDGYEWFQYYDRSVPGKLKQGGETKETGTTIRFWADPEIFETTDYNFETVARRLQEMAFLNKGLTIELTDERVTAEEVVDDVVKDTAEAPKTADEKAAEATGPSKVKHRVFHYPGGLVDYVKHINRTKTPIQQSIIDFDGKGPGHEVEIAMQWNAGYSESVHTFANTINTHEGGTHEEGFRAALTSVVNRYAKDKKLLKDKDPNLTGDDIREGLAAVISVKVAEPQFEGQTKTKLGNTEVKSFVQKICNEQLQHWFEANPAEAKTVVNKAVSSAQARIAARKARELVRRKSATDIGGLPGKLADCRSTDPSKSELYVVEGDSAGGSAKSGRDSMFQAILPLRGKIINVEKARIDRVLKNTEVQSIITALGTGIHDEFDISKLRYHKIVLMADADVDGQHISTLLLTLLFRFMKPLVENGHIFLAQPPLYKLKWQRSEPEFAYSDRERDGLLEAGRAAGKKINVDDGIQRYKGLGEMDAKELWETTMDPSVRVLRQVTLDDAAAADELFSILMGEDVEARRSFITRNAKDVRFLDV
Give IC50 for every item shown.

Molecule | Measured target | IC50
C=CCNC(=O)Nc1nc2cc(-c3cncc(C(=O)NCC)c3)cnc2s1 [Example 23] | Msm. GyrB (Mycolicibacterium smegmatis, UniProt A0QNE0) | 404 nM
C=CCNC(=O)Nc1nc2cc(-c3cncc(C(=O)NCCC(C)C)c3)cnc2s1 [Example 24] | Msm. GyrB (Mycolicibacterium smegmatis, UniProt A0QNE0) | 583 nM
C=CCNC(=O)Nc1nc2cc(-c3cncc(C(=O)O)c3)c(C)nc2s1 [Example 12] | Msm. GyrB (Mycolicibacterium smegmatis, UniProt A0QNE0) | 166 nM
C=CCNC(=O)Nc1nc2cc(Cl)cnc2s1 [Example 1] | Msm. GyrB (Mycolicibacterium smegmatis, UniProt A0QNE0) | 191 nM

Alright, here's another molecule for you.
Report IC50 from Msm. GyrB (Mycolicibacterium smegmatis, UniProt A0QNE0) testing of CCNC(=O)Nc1nc2cc(-c3cncnc3)c(OCCOCC)nc2s1 [Example 46]
20 nM
